# system.name: NEDD8 activating enzyme (Homo sapiens)
# test.description: Inhibition of recombinant human NAEalpha/N-terminal His-tagged NAEbeta expressed in baculovirus infected insect Sf9 cells using N-terminal FLAG tagged Nedd8 as substrate incubated for 105 mins in presence of N-terminal GST-tagged Ubc12 by FRET assay
assay.readout: IC50

- input.smiles: "NS(=O)(=O)OC[C@H]1C[C@@H](Nc2ccnc(C(=O)N3CCc4ccccc43)c2)[C@H](O)[C@@H]1O"
  measurement: "> 10000 nM"
- input.smiles: "CC1(C)Cc2cccc(-c3nc4c(N[C@@H]5C[C@@H](COS(N)(=O)=O)[C@@H](O)C5)ncnc4[nH]3)c2O1"
  measurement: "≤ 500 nM"
- input.smiles: "NS(=O)(=O)OC[C@@H]1C[C@@H](Oc2ncnc3[nH]c(-c4ccccc4)nc23)C[C@@H]1O"
  measurement: "≤ 500 nM"

* * *

Recorded IC50 values for a group of molecules are listed next.
# system.name: NEDD8 activating enzyme (Homo sapiens, UniProt Q8TBC4)
# Sequence (Q8TBC4 whole entry): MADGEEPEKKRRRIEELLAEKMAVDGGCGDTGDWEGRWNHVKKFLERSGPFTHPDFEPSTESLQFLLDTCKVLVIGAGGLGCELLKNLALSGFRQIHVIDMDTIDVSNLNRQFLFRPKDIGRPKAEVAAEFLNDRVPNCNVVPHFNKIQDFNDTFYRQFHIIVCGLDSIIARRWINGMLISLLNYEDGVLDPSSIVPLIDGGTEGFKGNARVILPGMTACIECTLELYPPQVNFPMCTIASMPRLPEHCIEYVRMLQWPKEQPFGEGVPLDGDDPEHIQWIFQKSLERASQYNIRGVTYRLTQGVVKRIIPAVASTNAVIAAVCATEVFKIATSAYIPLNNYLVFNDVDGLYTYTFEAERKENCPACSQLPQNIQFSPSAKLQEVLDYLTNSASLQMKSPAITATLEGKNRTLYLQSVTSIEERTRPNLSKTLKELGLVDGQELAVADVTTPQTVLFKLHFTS
# Sequence (Q13564 whole entry, further chain): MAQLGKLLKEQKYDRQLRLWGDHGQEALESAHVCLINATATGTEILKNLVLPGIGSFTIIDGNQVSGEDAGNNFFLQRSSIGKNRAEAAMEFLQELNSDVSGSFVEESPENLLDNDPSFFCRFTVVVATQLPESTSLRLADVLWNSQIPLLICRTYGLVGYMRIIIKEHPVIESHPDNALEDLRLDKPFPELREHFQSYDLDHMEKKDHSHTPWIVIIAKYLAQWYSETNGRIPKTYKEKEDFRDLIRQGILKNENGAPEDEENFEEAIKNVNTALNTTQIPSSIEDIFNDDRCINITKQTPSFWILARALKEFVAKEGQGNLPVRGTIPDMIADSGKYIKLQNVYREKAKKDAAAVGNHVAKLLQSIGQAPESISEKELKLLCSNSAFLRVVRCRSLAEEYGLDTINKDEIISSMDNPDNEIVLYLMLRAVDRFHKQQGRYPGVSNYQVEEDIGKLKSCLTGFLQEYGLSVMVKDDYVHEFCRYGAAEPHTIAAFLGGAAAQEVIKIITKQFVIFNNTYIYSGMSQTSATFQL
# test.description: Inhibition of recombinant human NAEalpha/N-terminal His-tagged NAEbeta expressed in baculovirus infected insect Sf9 cells using N-terminal FLAG tagged Nedd8 as substrate incubated for 105 mins in presence of N-terminal GST-tagged Ubc12 by FRET assay

- input.smiles: "NS(=O)(=O)OC[C@@H]1C[C@@H](Oc2cc(Cc3ccccc3)ncn2)C[C@@H]1O"
  IC50: "500 to 10000 nM"
- input.smiles: "NS(=O)(=O)OC[C@@H]1C[C@@H](Nc2ncnc3nc(-c4cccc5c4OCC5)[nH]c23)C[C@@H]1O"
  IC50: "≤ 500 nM"
- input.smiles: "COc1ccc2c(c1)[C@@H](Nc1cc(O[C@@H]3C[C@@H](COS(N)(=O)=O)[C@@H](O)C3)ncn1)[C@@H](OC)CC2"
  IC50: "500 to 10000 nM"
- input.smiles: "NS(=O)(=O)OC[C@@H]1C[C@@H](Nc2ncnc3[nH]c(-c4cccc5c4OCCO5)nc23)C[C@@H]1O"
  IC50: "≤ 500 nM"
- input.smiles: "NS(=O)(=O)OC[C@H]1C[C@@H](Nc2ncnc3[nH]cnc23)[C@H](O)[C@@H]1O"
  IC50: "≤ 500 nM"
- input.smiles: "NS(=O)(=O)OC[C@@H]1C[C@@H](Cc2cc(N[C@H]3CCc4ccccc43)ncn2)C[C@@H]1O"
  IC50: "500 to 10000 nM"

* * *

# system.name: UniProt:Q8TBC4
# test.description: Inhibition of recombinant human NAEalpha/N-terminal His-tagged NAEbeta expressed in baculovirus infected insect Sf9 cells using N-terminal FLAG tagged Nedd8 as substrate incubated for 105 mins in presence of N-terminal GST-tagged Ubc12 by FRET assay
pIC50: −log10 of the molar value.
assay.readout: pIC50

- molecule: "NS(=O)(=O)OC[C@H]1C[C@@H](Nc2cc(N[C@H]3CCc4c(F)ccc(F)c43)ncn2)[C@H](O)[C@@H]1O"
  system.name: "UniProt:Q8TBC4"
  measurement: "≥ 6.30"
- molecule: "CO[C@H]1Cc2ccccc2[C@H]1Nc1cc(N[C@@H]2C[C@H](COS(N)(=O)=O)[C@@H](O)[C@H]2O)ncn1"
  system.name: "UniProt:Q8TBC4"
  measurement: "≥ 6.30"
- molecule: "NS(=O)(=O)OC[C@@H]1C[C@@H](Oc2ccnc(N[C@H]3CCc4ccccc43)c2)C[C@@H]1O"
  system.name: "UniProt:Q8TBC4"
  measurement: "5.00 to 6.30"
- molecule: "NS(=O)(=O)OC[C@H]1C[C@@H](NC(=O)c2ccccn2)[C@H](O)[C@@H]1O"
  system.name: "UniProt:Q8TBC4"
  measurement: "< 5.00"
- molecule: "NS(=O)(=O)OC[C@@H]1C[C@@H](Nc2ncnc3nc(-c4cccc5cccnc45)[nH]c23)C[C@@H]1O"
  system.name: "UniProt:Q8TBC4"
  measurement: "≥ 6.30"
- molecule: "NS(=O)(=O)OC[C@@H]1C[C@@H](Nc2ncnc3nc(-c4ccc(OCc5ccccc5)cc4)[nH]c23)C[C@@H]1O"
  system.name: "UniProt:Q8TBC4"
  measurement: "≥ 6.30"
- molecule: "Cc1cccc(-c2nc3c(N[C@@H]4C[C@@H](COS(N)(=O)=O)[C@@H](O)C4)ncnc3[nH]2)c1C"
  system.name: "UniProt:Q8TBC4"
  measurement: "≥ 6.30"
- molecule: "Cc1ccccc1-c1nc2c(N[C@@H]3C[C@@H](COS(N)(=O)=O)[C@@H](O)C3)ncnc2[nH]1"
  system.name: "UniProt:Q8TBC4"
  measurement: "≥ 6.30"
- molecule: "NS(=O)(=O)OC[C@@H]1C[C@@H](Nc2ncnc3[nH]c(-c4ccc(Cl)cc4)nc23)C[C@@H]1O"
  system.name: "UniProt:Q8TBC4"
  measurement: "≥ 6.30"
- molecule: "CN(Cc1ccccc1)c1nccc(N[C@@H]2C[C@H](COS(N)(=O)=O)[C@@H](O)[C@H]2O)n1"
  system.name: "UniProt:Q8TBC4"
  measurement: "< 5.00"
- molecule: "NS(=O)(=O)OC[C@@H]1C[C@@H](Nc2cc(N[C@H]3CCc4ccccc43)ncn2)[C@H](O)[C@@H]1O"
  system.name: "UniProt:Q8TBC4"
  measurement: "≥ 6.30"
- molecule: "NS(=O)(=O)OC[C@H]1C[C@@H](Nc2cc(Nc3cccc4c3CCCC4)ncn2)[C@H](O)[C@@H]1O"
  system.name: "UniProt:Q8TBC4"
  measurement: "≥ 6.30"
- molecule: "CO[C@H]1Cc2ccccc2[C@H]1Nc1cc(N[C@@H]2C[C@@H](COS(N)(=O)=O)[C@@H](O)C2)ncn1"
  system.name: "UniProt:Q8TBC4"
  measurement: "≥ 6.30"
- molecule: "NS(=O)(=O)OC[C@@H]1C[C@@H](Nc2ncnc3[nH]c(-c4cccc(-c5ccccc5)c4)nc23)C[C@@H]1O"
  system.name: "UniProt:Q8TBC4"
  measurement: "≥ 6.30"
- molecule: "CC(C)(C)c1nc2c(N[C@@H]3C[C@@H](COS(N)(=O)=O)[C@@H](O)C3)ncnc2[nH]1"
  system.name: "UniProt:Q8TBC4"
  measurement: "≥ 6.30"
- molecule: "CN(C)c1ccccc1-c1nc2c(N[C@@H]3C[C@@H](COS(N)(=O)=O)[C@@H](O)C3)ncnc2[nH]1"
  system.name: "UniProt:Q8TBC4"
  measurement: "≥ 6.30"
- molecule: "Cc1nc(N[C@H]2CCc3ccccc32)cc(N[C@@H]2C[C@H](COS(N)(=O)=O)[C@@H](O)[C@H]2O)n1"
  system.name: "UniProt:Q8TBC4"
  measurement: "≥ 6.30"
- molecule: "NS(=O)(=O)OC[C@H]1C[C@@H](Nc2cc(N[C@@H]3CCc4ccccc43)ncn2)[C@H](O)[C@@H]1O"
  system.name: "UniProt:Q8TBC4"
  measurement: "≥ 6.30"
- molecule: "CO[C@H]1CCc2ccccc2[C@H]1Nc1cc(O[C@@H]2C[C@@H](COS(N)(=O)=O)[C@@H](O)C2)ncn1"
  system.name: "UniProt:Q8TBC4"
  measurement: "≥ 6.30"
- molecule: "CC1CC(Nc2nccc(N[C@@H]3C[C@H](COS(N)(=O)=O)[C@@H](O)[C@H]3O)n2)c2ccccc21 (stereo not given in full)"
  system.name: "UniProt:Q8TBC4"
  measurement: "≥ 6.30"
